# Test system: wildtype Kras / hSOS1 (Homo sapiens)
# Construct: made in house; host or cells: E. coli BL21 (DE3)
# Sequence (P01116 1-188 isoform P01116-2): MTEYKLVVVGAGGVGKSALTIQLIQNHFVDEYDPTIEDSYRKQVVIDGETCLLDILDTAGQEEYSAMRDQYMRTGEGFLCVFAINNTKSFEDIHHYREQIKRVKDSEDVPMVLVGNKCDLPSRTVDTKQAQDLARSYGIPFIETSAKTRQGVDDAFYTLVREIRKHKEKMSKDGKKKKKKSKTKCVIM
# Method description: HTRF assay, wildtype Kras / SOS1 interaction
# Format: binding
# Condition notes: compound nos. 401-703; read-out: IC50 against wildtype Kras
pIC50: −log10 of the molar value.
Collected pIC50 values appear next to each entry.

[[record]]
compound = "N#Cc1c(N)sc2c(F)ccc(-c3c(Cl)cc4c(N5C[C@H]6CC[C@@H](C5)N6C5CCOCC5)nc(OC[C@@]56CCCN5C[C@H](F)C6)nc4c3F)c12"
observed_result = "< 6.30"

[[record]]
compound = "Fc1c(-c2cccc3c2CCCC3)c(Cl)cc2c(N3CC4CCC(C3)N4)nc(OC[C@@]34CCCN3C[C@H](F)C4)nc12"
observed_result = "< 6.30"

[[record]]
compound = "O=C(c1cc(O)cc2ccccc12)N1CCc2nc(OCC34CCCN3CCC4)nc(N3CC4CCC(C3)N4)c2CC1"
observed_result = "< 6.30"

[[record]]
compound = "Cc1ccc2sc(N)nc2c1-c1c(Cl)cc2c(N3CC4CCC(C3)N4)nc(OCC34CCCN3CCC4)nc2c1F"
observed_result = "> 6.30"


Recorded result, Nc1nc2c(C3CCc4c(nc(OC[C@@]56CCCN5C[C@H](F)C6)nc4N4CCNCC(F)(F)C4)C3)cccc2s1 (stereo partly drawn) , pIC50: < 6.30

pIC50 recorded for this compound, Cc1ccnc(C(C)C)c1-n1c(=O)nc(N2CC3CCC(C2)N3)c2cc(F)c(-c3cc(O)cc4ccccc34)nc21 , is < 6.30
